- target_system: c-Met-Fc (Homo sapiens, UniProt P08581)
- Sequence (P08581 with tags, fused parts or gaps limits assumed): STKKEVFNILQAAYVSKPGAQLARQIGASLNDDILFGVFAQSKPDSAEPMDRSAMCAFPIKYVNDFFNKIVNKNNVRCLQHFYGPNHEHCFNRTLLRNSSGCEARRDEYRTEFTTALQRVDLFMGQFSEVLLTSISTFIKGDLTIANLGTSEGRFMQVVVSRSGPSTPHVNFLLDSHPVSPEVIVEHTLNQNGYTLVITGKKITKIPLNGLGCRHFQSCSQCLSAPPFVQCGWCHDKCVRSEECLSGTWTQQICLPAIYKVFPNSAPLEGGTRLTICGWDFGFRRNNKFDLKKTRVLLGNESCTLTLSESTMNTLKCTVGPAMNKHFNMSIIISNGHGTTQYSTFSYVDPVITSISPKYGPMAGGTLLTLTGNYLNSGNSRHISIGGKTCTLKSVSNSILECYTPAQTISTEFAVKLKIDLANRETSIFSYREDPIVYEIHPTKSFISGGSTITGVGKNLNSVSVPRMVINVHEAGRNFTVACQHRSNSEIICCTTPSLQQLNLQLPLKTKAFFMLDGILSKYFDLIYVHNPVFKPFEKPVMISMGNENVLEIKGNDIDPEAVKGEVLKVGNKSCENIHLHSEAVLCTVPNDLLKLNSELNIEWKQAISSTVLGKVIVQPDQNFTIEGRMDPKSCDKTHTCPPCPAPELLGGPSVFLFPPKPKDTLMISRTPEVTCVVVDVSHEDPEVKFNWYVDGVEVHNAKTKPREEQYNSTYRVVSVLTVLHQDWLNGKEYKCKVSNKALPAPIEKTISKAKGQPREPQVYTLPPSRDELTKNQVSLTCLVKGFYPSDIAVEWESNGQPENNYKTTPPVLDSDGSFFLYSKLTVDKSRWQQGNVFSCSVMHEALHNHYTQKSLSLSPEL
- Sequence (P08581 25-307 limits assumed): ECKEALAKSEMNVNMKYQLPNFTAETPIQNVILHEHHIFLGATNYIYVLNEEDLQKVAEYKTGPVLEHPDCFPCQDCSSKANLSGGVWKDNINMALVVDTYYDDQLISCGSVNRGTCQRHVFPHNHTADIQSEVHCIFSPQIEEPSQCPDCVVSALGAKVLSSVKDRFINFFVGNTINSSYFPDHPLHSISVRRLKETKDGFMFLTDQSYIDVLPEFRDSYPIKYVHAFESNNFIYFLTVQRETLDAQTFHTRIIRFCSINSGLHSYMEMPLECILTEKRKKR
- procedure_summary: Binding ability by surface plasmon resonance (SPR, Biacore)
- measurement_parameters: Table 11, monomer and dimeric peptides
Bridges are numbered along the chain shown (N, C = ends). Where no end group is shown, it is not given here. [ ]: non-standard residue; d: D form. βAla = NCCC(=O)O
# ka annotations
property_name: ka

substance | data_value
D4-3NMe Bis-MAL-PEG11: dimeric peptide: two D4-3NMe macrocycles linked through C-terminal Cys by Bis-MAL-PEG11 linker ({CH2CO}-[dY]RQFNRRTHEVWNLDCGC; thioether N-16; not fully specified (residue 18); also: two amino acids N-methylated (N6 + N16), dimer: two D4-3NMe macrocycles linked through C-terminal Cys by Bis-MAL-PEG11) | 0.49 10^6 M^−1s^−1
D4-3 Bis-MAL-PEG3: dimeric peptide: two D4-3 macrocycles linked through C-terminal Cys by Bis-MAL-PEG3 linker ({CH2CO}-[dY]RQFNRRTHEVWNLDCGC; thioether N-16; not fully specified (residue 18); also: dimer: two copies joined by Bis-MAL-PEG3, linker at 18 via Bis-MAL-PEG3, other end not in the chain) | 1.1 10^6 M^−1s^−1
L5-2 Bis-MAL-PEG3: dimeric peptide: two L5-2 macrocycles linked through C-terminal Cys by Bis-MAL-PEG3 linker ({CH2CO}-YISWNEFNSPNWRFITCG[βAla]C-NH2; thioether N-17; not fully specified (residue 20); also: dimer: two copies joined by Bis-MAL-PEG3, linker at 20 via Bis-MAL-PEG3, other end not in the chain) | 0.22 10^6 M^−1s^−1
